Values were extracted from patent US20220282217A1.

- subject_of_test: HLA-A02.01 (Homo sapiens, UniProt P04439, D140Y/D185E/D98H/E176V/E277Q/G131W/G231S/I119V/I121R/I166T/I218V/N151K/N90K/P208A/P217A/Q86G/Q94H/R138H/R169H)
- Construct: made in house; host or cells: E. coli
- protocol_summary: Class I MHC peptide binding stability (pMHC-I dissociation, 125I-labeled light chain)
- condition_description: HLA Allele A02.01; time for half of the complexes to dissociate at 37° C.
Where a SMILES comes first, the peptide text is derived from it.
Each entry below carries its recorded Measured stability.

Reference set (3 entries):
CC(C)C[C@H](N)C(=O)N[C@H](C(=O)N[C@H](C(=O)N[C@H](C(=O)NCC(=O)N[C@@H](C)C(=O)N[C@@H](CS)C(=O)NCC(=O)N[C@H](C(=O)O)C(C)C)C(C)C)C(C)C)C(C)C (H-LVVVGACGV-OH; N-terminus and C-terminus assumed); 0.6 h
CC(C)C[C@H](N)C(=O)N[C@H](C(=O)N[C@H](C(=O)N[C@H](C(=O)NCC(=O)N[C@@H](C)C(=O)N[C@H](C(=O)NCC(=O)N[C@H](C(=O)O)C(C)C)C(C)C)C(C)C)C(C)C)C(C)C; 0.6 h
CC(C)C[C@H](NC(=O)[C@@H](N)CCCCN)C(=O)N[C@H](C(=O)N[C@H](C(=O)N[C@H](C(=O)NCC(=O)N[C@@H](C)C(=O)N[C@@H](CC(=O)O)C(=O)NCC(=O)N[C@H](C(=O)O)C(C)C)C(C)C)C(C)C)C(C)C; 0.9 h

Now let's try a different one.
Endpoint output: Measured stability of CC(C)C[C@H](N)C(=O)N[C@H](C(=O)N[C@H](C(=O)N[C@H](C(=O)NCC(=O)N[C@@H](C)C(=O)N[C@@H](CC(=O)O)C(=O)NCC(=O)N[C@H](C(=O)O)C(C)C)C(C)C)C(C)C)C(C)C (H-LVVVGADGV-OH; N-terminus and C-terminus assumed) . Value?
0.0 h

* * *

- subject_of_test: HLA-A03.01 (Homo sapiens)
- protocol_summary: Class I MHC peptide binding affinity (displacement of radiolabeled reference peptide)
- condition_description: allele A03.01; read-out: Observed Affinity (IC50; (nM))
Where a SMILES comes first, the peptide text is derived from it.
reported_metric: IC50 (nM)
All answers are understood in nM, so give the number only.

Worked examples, 2 compounds total:
CC(C)C[C@H](NC(=O)[C@@H](N)CC(C)C)C(=O)N[C@H](C(=O)N[C@@H](CO)C(=O)N[C@@H](CO)C(=O)N[C@@H](CO)C(=O)N[C@@H](CCCNC(=N)N)C(=O)N[C@@H](CCC(=O)O)C(=O)N[C@@H](Cc1c[nH]c2ccccc12)C(=O)N[C@@H](CCCCN)C(=O)O)[C@@H](C)O (H-LLTSSSREWK-OH; N-terminus and C-terminus assumed); 1770
CC(C)C[C@H](NC(=O)[C@@H](N)CCCNC(=N)N)C(=O)N[C@@H](CO)C(=O)N[C@@H](CO)C(=O)N[C@@H](CS)C(=O)N[C@H](C(=O)N1CCC[C@H]1C(=O)N[C@H](C(=O)N[C@@H](C)C(=O)O)C(C)C)C(C)C; 439

Attention now shifts to the item below.
Returns the measured IC50 for the input compound. Input: CC(C)C[C@H](N)C(=O)N[C@H](C(=O)N[C@@H](CO)C(=O)N[C@@H](CO)C(=O)N[C@@H](CO)C(=O)N[C@@H](CCCNC(=N)N)C(=O)N[C@@H](CCC(=O)O)C(=O)N[C@@H](Cc1c[nH]c2ccccc12)C(=O)N[C@@H](CCCCN)C(=O)O)[C@@H](C)O (H-LTSSSREWK-OH; N-terminus and C-terminus assumed)
118
